# system.tested: OsWRKY34 (Oryza sativa, UniProt Q0JBA9 1-250)
# Sequence (Q0JBA9 entry or part of it): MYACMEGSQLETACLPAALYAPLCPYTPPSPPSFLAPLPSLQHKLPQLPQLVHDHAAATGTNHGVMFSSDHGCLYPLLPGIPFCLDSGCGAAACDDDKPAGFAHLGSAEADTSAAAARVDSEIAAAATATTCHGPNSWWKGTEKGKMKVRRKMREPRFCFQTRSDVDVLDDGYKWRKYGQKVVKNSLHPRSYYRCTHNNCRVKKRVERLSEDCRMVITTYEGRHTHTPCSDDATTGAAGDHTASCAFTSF
# assay.method.text: protein-binding microarray (RPBM); PBS, 2% BSA, 51.3 ng/ul salmon testes DNA, 50 uM zinc acetate, 200 nM TF, 25 C, 1 h; high values mean tight binding
# cond: protein: recombinant; tags: N-terminal polyhistidine and DsRed monomer fusion (pET32a); label: CyDye5-dUTP incorporated in the synthesized complementary strand; 3' TTTTT single-stranded linker to array surface; dsDNA, one strand shown
The full ranking holds about 68,000 sequences; the median of “fluorescence intensity (a.u.)” is about 9,100, and the highest 2% start at about 16,000. The full list was thinned out, with the highest values kept by preference.
recorded.metric: binding signal

| biopolymer.sequence | observed.value |
| --- | --- |
| GATTTTTCTTTACATGTTCTTTTTCATCGATCTTTTGAGACGGAGTCACCTAGTGCAG | 9460 fluorescence intensity (a.u.) |
| CAGGGGTGGGTGTTAGCTGTTGTGCAAGAAGTGGTGTTTGCGGAGTCACCTAGTGCAG | 10600 fluorescence intensity (a.u.) |
| GTCGTTCGCTCTTTTATCCTTTTCGGACAATTTCACTTTCCGGAGTCACCTAGTGCAG | 19200 fluorescence intensity (a.u.) |
| GTCACCTTTTCTTTTATCAACATTCATTTGTTTTATTACTCGGAGTCACCTAGTGCAG | 8270 fluorescence intensity (a.u.) |
| CTACGATACACCGCTTGTTTCTGTTTTTCTTATCTAGGAACGGAGTCACCTAGTGCAG | 9180 fluorescence intensity (a.u.) |
| GTGAAGTGTGGTTTAAAAATGGTTGCCTGGTCACTTTATCCGGAGTCACCTAGTGCAG | 9020 fluorescence intensity (a.u.) |
| CTCCAACCTAACCCCTGCCTGCCTGCATCAACCATATATGCGGAGTCACCTAGTGCAG | 8720 fluorescence intensity (a.u.) |
| GTCCTCGTTTTTTTTTTCCTTCTCTTTTTCTTTTCCTTTTCGGAGTCACCTAGTGCAG | 9450 fluorescence intensity (a.u.) |
| GCTTCACCTTCGGCTTCGACTTCGGCTTCGTTTCCTCTTCCGGAGTCACCTAGTGCAG | 18600 fluorescence intensity (a.u.) |
